- Method Notes: recombinant UMI read abundance after kanamycin selection (control-corrected) (log10(CPM+1)); higher = more efficient recombination; extreme values may be limits of the assay; sequences stand for … in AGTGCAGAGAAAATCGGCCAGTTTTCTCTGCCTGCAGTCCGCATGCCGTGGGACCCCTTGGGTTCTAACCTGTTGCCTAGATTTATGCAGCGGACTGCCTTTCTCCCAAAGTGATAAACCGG…AGGTTGGTTTCACT; site = the 11-nt donor;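 also: IS621 bridge recombinase in Escherichia coli cells against a fixed T5 target plasmid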
Endpoint: recombinant UMI read abundance (log10)
Lab note: jot the number down without any unit.

[
  {
    "Item Sequence": "TCCAAATCATGGACCGGTTTTCCCGGTAATCCGTATTTGCC (site TCCAACTCTGG)",
    "recombinant UMI read abundance (log10)": 0
  },
  {
    "Item Sequence": "CACAAAACATGGACCGGTTTTCCCGGTAATCCGTATTTGGC (site CACAAAACTGC)",
    "recombinant UMI read abundance (log10)": 1.79
  },
  {
    "Item Sequence": "GCTTGTCCATGGACCGGTTTTCCCGGTAATCCGTATTTGAT (site GCTTGGCCTAT)",
    "recombinant UMI read abundance (log10)": 0
  }
]

recombinant UMI read abundance (log10) in this record for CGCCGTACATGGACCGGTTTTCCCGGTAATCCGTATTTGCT (site CGCCGTGCTAG) : 0.065

recombinant UMI read abundance (log10) in this record for GTTAGACCATGGACCGGTTTTCCCGGTAATCCGTATTTGGC (site GTTAGACCTGC) : 0

recombinant UMI read abundance (log10) in this record for TGCTCAGCATGGACCGGTTTTCCCGGTAATCCGTATTTGTT (site TGCTCAGCTAA) : 0

* * *

Parameter: recombinant UMI read abundance (log10). Scope: all listed entries.
- Method Notes: recombinant UMI read abundance after kanamycin selection (control-corrected) (log10(CPM+1)); higher = more efficient recombination; extreme values may be limits of the assay; sequences stand for … in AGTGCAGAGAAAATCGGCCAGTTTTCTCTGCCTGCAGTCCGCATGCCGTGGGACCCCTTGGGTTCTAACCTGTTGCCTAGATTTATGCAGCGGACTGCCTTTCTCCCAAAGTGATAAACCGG…AGGTTGGTTTCACT; site = the 11-nt donor
Lab note: jot the number down without any unit.

Solved cases (6 shown):
[
  {
    "Item Sequence": "GCGAACCCATGGACCGGTTTTCCCGGTAATCCGTATTTGGG (site GCGAAGCCTCC)",
    "recombinant UMI read abundance (log10)": 0.00885
  },
  {
    "Item Sequence": "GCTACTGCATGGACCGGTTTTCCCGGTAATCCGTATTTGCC (site GCTTCTGCTGG)",
    "recombinant UMI read abundance (log10)": 0.74
  },
  {
    "Item Sequence": "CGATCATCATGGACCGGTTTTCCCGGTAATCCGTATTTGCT (site CAATCACCTAG)",
    "recombinant UMI read abundance (log10)": 0
  },
  {
    "Item Sequence": "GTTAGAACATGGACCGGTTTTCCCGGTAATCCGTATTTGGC (site GTTAAAACTGC)",
    "recombinant UMI read abundance (log10)": 0
  },
  {
    "Item Sequence": "GAATGACCATGGACCGGTTTTCCCGGTAATCCGTATTTGCA (site GAATGACCTTG)",
    "recombinant UMI read abundance (log10)": 1.13
  },
  {
    "Item Sequence": "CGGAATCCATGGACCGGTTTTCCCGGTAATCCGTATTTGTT (site CGGGATCCTAG)",
    "recombinant UMI read abundance (log10)": 0
  }
]

Moving on to the next sequence.
recombinant UMI read abundance (log10) in this record for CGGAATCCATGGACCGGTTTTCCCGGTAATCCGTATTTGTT (site CGGCATGCTAA) : 0.0214
